- Tested on: M14 melanoma
- assaySummary: NCI-60 one-dose screen, 48 h (100 = growth as untreated, 0 = no growth, -100 = all killed)
- conditions: 10 µM unless noted
About 83,000 compounds went through this panel and 20% of them were active in at least one assay; those are over-represented in the sample as a whole.
Decision: growth compared against 50%; not below it gives criterion met, below it gives criterion not met.

Q) Can ClC1=C(Br)C(Br)(Br)C(=C(Br)Br)C1(Br)Br be said to have growth at or above 50%?
A) criterion met

* * *

- Tested on: NCI-H226 lung
- assaySummary: NCI-60 one-dose screen, 48 h (100 = growth as untreated, 0 = no growth, -100 = all killed)
- conditions: 10 µM unless noted
This is part of a sample that, as a whole, favours compounds with a hit. Of some 83,000 tested, about 20% had one in any assay.
Parameter class (string): assigned from measured growth. Ranges: band A: < 20%; band B: ≥ 20% and < 90%; band C: ≥ 90%

Q) Hey, which category is CC(C)c1ccc(Nc2ccc3c(OCCCN4CCN(C)CC4)cccc3n2)cc1 in, do you know?
A) band B
